System: KB (nasopharynx cancer)
Protocol: Cytotoxicity test with sulphorhodamine B, KB line
Assay type: cell-based
Condition Set: 72 hours incubation, sulphorhodamine B; read-out: Cytotoxic activity, IC50, KB (nasopharynx cancer)
Reported Property: IC50 (µM)

1) O=c1nc2n(cc1F)[C@H]1C[C@@H](O2)[C@@H](CO)O1 [2,3′-anhydro-2′-deoxy-5-fluorouridine]
48.2

* * *

System: MCF-7 (breast cancer)
Protocol: Cytotoxicity test with sulphorhodamine B, MCF-7 line
Type: cell-based
Condition Set: 72 hours incubation, sulphorhodamine B; read-out: Cytotoxic activity, IC50, MCF-7 (breast cancer)
pIC50: −log10 of the molar value.
Reported Property: pIC50

1. O=c1nc2n(cc1F)[C@H]1C[C@@H](O2)[C@@H](CO)O1 [2,3′-anhydro-2′-deoxy-5-fluorouridine]
4.79
